# TARGET UNDER TEST: Dual specificity mitogen-activated protein kinase kinase 1 (Homo sapiens, UniProt Q02750);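 further: MEK inhibition measured as non-competitive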
# Sequence (Q02750 whole entry): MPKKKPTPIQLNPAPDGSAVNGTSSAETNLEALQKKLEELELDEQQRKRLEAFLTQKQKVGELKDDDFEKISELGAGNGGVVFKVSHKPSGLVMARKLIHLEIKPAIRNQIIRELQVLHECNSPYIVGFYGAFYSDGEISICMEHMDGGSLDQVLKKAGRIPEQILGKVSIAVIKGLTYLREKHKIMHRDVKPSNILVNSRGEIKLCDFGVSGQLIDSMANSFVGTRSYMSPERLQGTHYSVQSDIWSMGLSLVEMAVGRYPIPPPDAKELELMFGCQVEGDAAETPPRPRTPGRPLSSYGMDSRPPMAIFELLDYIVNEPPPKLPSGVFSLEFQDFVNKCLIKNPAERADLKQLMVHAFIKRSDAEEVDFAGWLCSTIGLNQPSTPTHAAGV
QUANTITY NAME: IC50 (nM)
Entry rule: numbers only, all in nM.

COMPOUND STRUCTURE STRING: N#Cc1c(N)[nH]c(Sc2ccc3ccccc3c2)c1C#N
UNIT ABBREV: nM
IC50: 1400
//
COMPOUND STRUCTURE STRING: N#CC(=C(/N)Sc1c(Cl)cccc1Cl)/C(C#N)=C(\N)Sc1c(Cl)cccc1Cl
UNIT ABBREV: nM
IC50: 2800
//
COMPOUND STRUCTURE STRING: N#CC(=C(/N)Sc1ccccc1O)/C(C#N)=C(\N)Sc1ccccc1O
UNIT ABBREV: nM
IC50: 300
//
COMPOUND STRUCTURE STRING: N#CC(=C(/N)Sc1ccccc1)/C(C#N)=C(\N)Sc1ccccc1
UNIT ABBREV: nM
IC50: 900

Data request: Which IC50 is reported with Dual specificity mitogen-activated protein kinase kinase 1 (Homo sapiens, UniProt Q02750) for this entry: N#CC(=C(/N)Sc1cccs1)/C(C#N)=C(\N)Sc1cccs1 ?
Data returned: 300

Data request: Which IC50 is reported with Dual specificity mitogen-activated protein kinase kinase 1 (Homo sapiens, UniProt Q02750) for this entry: N#CC(=C(/N)Sc1ccccc1Br)/C(C#N)=C(\N)Sc1ccccc1Br ?
Data returned: 1100

Data request: Which IC50 is reported with Dual specificity mitogen-activated protein kinase kinase 1 (Homo sapiens, UniProt Q02750) for this entry: Cc1ccccc1S/C(N)=C(C#N)/C(C#N)=C(\N)Sc1ccccc1C ?
Data returned: 2000

Data request: Which IC50 is reported with Dual specificity mitogen-activated protein kinase kinase 1 (Homo sapiens, UniProt Q02750) for this entry: N#CC(=C(/N)Sc1ccccc1F)/C(C#N)=C(\N)Sc1ccccc1F ?
Data returned: 900

Data request: Which IC50 is reported with Dual specificity mitogen-activated protein kinase kinase 1 (Homo sapiens, UniProt Q02750) for this entry: N#Cc1c(NS(=O)(=O)c2ccccc2)[nH]c(Sc2ccc3ccccc3c2)c1C#N ?
Data returned: 1900

Data request: Which IC50 is reported with Dual specificity mitogen-activated protein kinase kinase 1 (Homo sapiens, UniProt Q02750) for this entry: N#CC(=C(/N)Sc1ccccc1N)/C(C#N)=C1\Nc2ccccc2S1 ?
Data returned: 3200
